TEST_TARGET: HDAC2 (Homo sapiens, UniProt Q92769)
Sequence (Q92769 with tags, fused parts or gaps): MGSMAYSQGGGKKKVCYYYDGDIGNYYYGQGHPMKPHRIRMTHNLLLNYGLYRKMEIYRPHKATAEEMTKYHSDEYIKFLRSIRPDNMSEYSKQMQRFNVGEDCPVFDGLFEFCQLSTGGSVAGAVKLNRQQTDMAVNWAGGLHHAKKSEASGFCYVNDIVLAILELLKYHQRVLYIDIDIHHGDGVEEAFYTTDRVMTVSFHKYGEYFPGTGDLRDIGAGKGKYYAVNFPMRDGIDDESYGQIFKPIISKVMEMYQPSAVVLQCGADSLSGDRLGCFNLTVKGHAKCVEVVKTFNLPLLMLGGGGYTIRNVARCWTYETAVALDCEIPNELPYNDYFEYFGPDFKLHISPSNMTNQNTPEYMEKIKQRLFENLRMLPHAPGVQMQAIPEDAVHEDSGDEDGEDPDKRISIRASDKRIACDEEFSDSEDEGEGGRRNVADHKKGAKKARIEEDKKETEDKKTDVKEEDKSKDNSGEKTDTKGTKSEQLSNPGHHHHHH
TEST_DETAILS: HDAC2 fluorescence inhibition assay (tBoc-Lys(Ac)-AMC)
pIC50: −log10 of the molar value.
Entries and their pIC50
ENDPOINT_NAME: pIC50

CHEMICAL_SMILES	TEST_TARGET	RESULT
CC(C)CNC(=O)c1cnn(Cc2ccc(C(=O)Nc3ccccc3N)cc2)c1	HDAC2 (Homo sapiens, UniProt Q92769)	≥ 7.30
COc1cc2cnn(Cc3ccc(C(=O)Nc4ccccc4N)cc3)c2cc1OC	HDAC2 (Homo sapiens, UniProt Q92769)	≥ 7.30
Nc1ccc(-c2cccs2)cc1NC(=O)c1ccc(Cn2cc3ccccc3n2)cc1	HDAC2 (Homo sapiens, UniProt Q92769)	≥ 7.30
COc1ccc2c(C)nn(Cc3ccc(C(=O)Nc4ccccc4N)cc3)c2c1	HDAC2 (Homo sapiens, UniProt Q92769)	≥ 7.30
COC(=O)c1ccc(N)c(NC(=O)c2ccc(Cn3cc4ccccc4n3)cc2)c1	HDAC2 (Homo sapiens, UniProt Q92769)	≤ 6.30
Nc1ccc(-c2cccs2)cc1NC(=O)c1ccc(Cn2ncc3c(F)cc(F)cc32)cc1	HDAC2 (Homo sapiens, UniProt Q92769)	6.30 to 7.00
Cc1nn(Cc2ccc(C(=O)Nc3ccccc3N)cc2)c2ccc(C(F)(F)F)cc12	HDAC2 (Homo sapiens, UniProt Q92769)	7.00 to 7.30
COCCOC(=O)Nc1ccc2c(cnn2Cc2ccc(C(=O)Nc3ccccc3N)cc2)c1	HDAC2 (Homo sapiens, UniProt Q92769)	≥ 7.30
